- experiment: physchem
- Assay type: physicochemical
Marks after values point to notes of the source that are not given here.
Entries and their LogP
measuredQuantity: LogP

- Cc1ccc(CCNC(=O)c2cc(Cl)ncc2Oc2cccc(OC(F)F)c2)c(C)c1 [Compound I-136]: 4.43^[a]
- COc1cccc(Oc2cnc(Cl)cc2C(=O)NCC(F)(F)c2ccc(C)cc2Cl)c1 [Compound I-048]: 3.67^[a]
- COc1cccc(Oc2cnc(C)cc2C(=O)NCCc2ccc(C)cc2C)c1 [Compound I-180]: 3.50^[a]
- Cc1ccc(C(F)(F)CNC(=O)c2cc(C)ncc2Oc2cccc(C3CC3)c2)c(Cl)c1 [Compound I-071]: 4.39^[a]
- C=Cc1cc(C(=O)NCC(F)(F)c2ccc(C)cc2C)c(Oc2cccc(C3CC3)c2)cn1 [Compound I-072]: 5.05^[a]
- CCOc1cccc(Oc2cnc(Cl)cc2C(=O)NCCc2ccc(C)cc2C)c1 [Compound I-259]: 4.85^[a]
- O=C(NCC(F)c1ccc(Cl)cc1Cl)c1cc(Cl)ncc1Oc1cccc(C(F)(F)F)c1 (centres unmarked) [Compound I-010]: 4.74^[a]
- Cc1ccc(CCNC(=O)c2cc(Cl)ncc2Oc2cccc(N(C)C)c2)c(C)c1 [Compound I-170]: 4.83^[a]
- Cc1ccc(CCNC(=O)c2cc(-c3cn[nH]c3)ncc2Oc2cccc(C(F)(F)F)c2)c(C)c1 [Compound I-206]: 3.63^[a]
- O=C(NCC(F)(F)c1cc(Cl)sc1Cl)c1cc(Cl)ncc1Oc1cccc(C(F)(F)F)c1 [Compound I-211]: 5.04^[a]
- O=C(NCC(F)(F)c1ccc(Br)cc1Cl)c1c(Oc2cccc(C(F)(F)F)c2)cnc(Cl)c1I [Compound I-046]: 4.96^[a]
- COc1cc(C(F)CNC(=O)c2cc(Cl)ncc2Oc2cccc(C(F)(F)F)c2)ccc1Cl (racemic) [Compound I-081]: 4.37^[a]
- Cc1ccc(CCNC(=O)c2cc(C3CC3)ncc2Oc2cccc(C(F)(F)F)c2)c(C)c1 [Compound I-194]: 4.97^[a]
- Cc1ccc(CCNC(=O)c2cc(C)ncc2Oc2cccc(C3CC3)c2)c(C)c1 [Compound I-242]: 4.27^[a]
